B1: ZBTB22 (parent)
chain: FSSSSQEAFAASAVGSGERRGGGP

# Variants of: B1
# assay.explanation: protein stability index of a GFP-peptide fusion (GPS, HEK-293T) (PSI 1-6); higher = more stable;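 also: lentivirally expressed fusions sorted by FACS into six bins by GFP to DsRed ratio, PSI derived from sequencing read proportions per bin multiplied by bin number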
# condition.description: c terminus: a fixed tail appended
Think of 3 as a floor: if protein stability index stands on it or above, it is label 1; beneath it, label 0.

>  <mutant.label>
Q6T

>  <assigned.category>
label 0

$$$$
>  <mutant.label>
S4W

>  <assigned.category>
label 0

$$$$
>  <mutant.label>
S4P

>  <assigned.category>
label 1

$$$$
>  <mutant.label>
G15V

>  <assigned.category>
label 0

$$$$
>  <mutant.label>
S12L

>  <assigned.category>
label 0

$$$$
>  <mutant.label>
S4M

>  <assigned.category>
label 1

$$$$
>  <mutant.label>
G21N

>  <assigned.category>
label 1

$$$$

Reference source for all entries: the supplement of paper PMC10567573
